- TEST: Dissociation constant of the compound
- Type: physicochemical
PARAMETER MEASURED: pKa

Note to self: pKa recorded for CN(C)CCC1(c2ccc(Cl)cc2)Cc2ccccc2C(=O)O1 (stereo in doubt; 1) was 8.7

====

- TEST: Lipophilicity of the compound
- Format: physicochemical
- CONDITIONS USED: octanol/water
PARAMETER MEASURED: logD
Output spec: single numeric token, no unit.

Note to self: logD recorded for CN(C)CCC1(c2ccc(Cl)cc2)Cc2ccccc2C(=O)O1 (stereo in doubt; 1) was 2.1
